system: THRa homodimer (NR concentration 90 nM); assay: PBM binding z-score (relative to random genomic background probes); higher = stronger binding; sequences stand for … in GC…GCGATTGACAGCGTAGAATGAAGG
readout.label: PBM binding z-score

>>> print(df.to_string())
                         item_sequence                        target_under_test  reported_measurement
 0  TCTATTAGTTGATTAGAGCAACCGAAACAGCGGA  THRa homodimer (NR concentration 90 nM)                -0.739
 1  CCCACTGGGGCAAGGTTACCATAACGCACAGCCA  THRa homodimer (NR concentration 90 nM)                 0.178
 2  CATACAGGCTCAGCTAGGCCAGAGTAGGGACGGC  THRa homodimer (NR concentration 90 nM)                -0.416
 3  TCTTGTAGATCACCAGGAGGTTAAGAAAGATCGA  THRa homodimer (NR concentration 90 nM)                -0.466
 4  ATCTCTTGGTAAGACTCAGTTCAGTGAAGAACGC  THRa homodimer (NR concentration 90 nM)                  1.13
 5  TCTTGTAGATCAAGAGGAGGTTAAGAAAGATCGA  THRa homodimer (NR concentration 90 nM)                -0.142
 6  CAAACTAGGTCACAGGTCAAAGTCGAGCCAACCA  THRa homodimer (NR concentration 90 nM)                  2.07
 7  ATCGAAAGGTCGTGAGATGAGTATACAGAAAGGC  THRa homodimer (NR concentration 90 nM)                -0.531
 8  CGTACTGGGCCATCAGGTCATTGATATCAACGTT  THRa homodimer (NR concentration 90 nM)                  3.18
 9  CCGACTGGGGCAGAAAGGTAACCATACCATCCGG  THRa homodimer (NR concentration 90 nM)                -0.606
10  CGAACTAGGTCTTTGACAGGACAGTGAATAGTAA  THRa homodimer (NR concentration 90 nM)               -0.0353
11  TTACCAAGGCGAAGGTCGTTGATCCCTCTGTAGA  THRa homodimer (NR concentration 90 nM)                0.0881
12  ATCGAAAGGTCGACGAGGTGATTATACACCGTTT  THRa homodimer (NR concentration 90 nM)                 0.498
13  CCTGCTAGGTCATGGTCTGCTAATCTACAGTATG  THRa homodimer (NR concentration 90 nM)                  1.35
14  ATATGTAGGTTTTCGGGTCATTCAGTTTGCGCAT  THRa homodimer (NR concentration 90 nM)                  4.22
15  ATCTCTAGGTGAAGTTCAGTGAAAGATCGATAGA  THRa homodimer (NR concentration 90 nM)                0.0183
16  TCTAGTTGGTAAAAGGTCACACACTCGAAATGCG  THRa homodimer (NR concentration 90 nM)                   2.3
17  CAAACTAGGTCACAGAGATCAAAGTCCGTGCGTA  THRa homodimer (NR concentration 90 nM)                  1.27

====

system: PXR:RXRa (NR concentration 270 nM, RXRa partner concentration 90 nM); experiment: PBM binding z-score (relative to random genomic background probes); higher = stronger binding; sequences stand for … in GC…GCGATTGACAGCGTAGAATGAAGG
Measured PBM binding z-score values are reported for all entries that follow.
readout.label: PBM binding z-score

>>> df
                        item_sequence                         target_under_test        readout_label  reported_measurement
0  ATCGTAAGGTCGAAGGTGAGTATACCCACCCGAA  PXR:RXRa (NR concentration 270 nM, RXRa partner concentration 90 nM)  PBM binding z-score                  1.87
1  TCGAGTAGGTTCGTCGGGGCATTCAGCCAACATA  PXR:RXRa (NR concentration 270 nM, RXRa partner concentration 90 nM)  PBM binding z-score                 0.391
2  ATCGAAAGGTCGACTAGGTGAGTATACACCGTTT  PXR:RXRa (NR concentration 270 nM, RXRa partner concentration 90 nM)  PBM binding z-score                  2.73
3  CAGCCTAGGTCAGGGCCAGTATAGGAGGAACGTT  PXR:RXRa (NR concentration 270 nM, RXRa partner concentration 90 nM)  PBM binding z-score                 0.272
4  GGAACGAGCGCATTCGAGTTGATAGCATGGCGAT  PXR:RXRa (NR concentration 270 nM, RXRa partner concentration 90 nM)  PBM binding z-score                -0.904
5  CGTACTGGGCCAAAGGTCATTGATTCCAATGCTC  PXR:RXRa (NR concentration 270 nM, RXRa partner concentration 90 nM)  PBM binding z-score                  5.73
6  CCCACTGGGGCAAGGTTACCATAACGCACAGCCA  PXR:RXRa (NR concentration 270 nM, RXRa partner concentration 90 nM)  PBM binding z-score                 0.144
7  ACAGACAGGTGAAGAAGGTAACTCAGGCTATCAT  PXR:RXRa (NR concentration 270 nM, RXRa partner concentration 90 nM)  PBM binding z-score                0.0318
8  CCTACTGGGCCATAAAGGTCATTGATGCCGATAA  PXR:RXRa (NR concentration 270 nM, RXRa partner concentration 90 nM)  PBM binding z-score                  4.87
9  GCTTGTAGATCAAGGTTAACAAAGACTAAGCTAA  PXR:RXRa (NR concentration 270 nM, RXRa partner concentration 90 nM)  PBM binding z-score                 0.565

====

system: LXRa:RXRa (NR concentration 270 nM, RXRa partner concentration 90 nM); test: PBM binding z-score (relative to random genomic background probes); higher = stronger binding; sequences stand for … in GC…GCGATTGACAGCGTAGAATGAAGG
readout.label: PBM binding z-score

In [3]: df
Out[3]:
                         item_sequence        readout_label  reported_measurement
 0  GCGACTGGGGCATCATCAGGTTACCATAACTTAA  PBM binding z-score                0.0527
 1  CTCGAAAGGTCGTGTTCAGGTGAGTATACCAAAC  PBM binding z-score                  3.64
 2  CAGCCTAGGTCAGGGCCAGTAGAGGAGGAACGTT  PBM binding z-score                 0.675
 3  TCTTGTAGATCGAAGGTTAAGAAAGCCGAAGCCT  PBM binding z-score                 0.667
 4  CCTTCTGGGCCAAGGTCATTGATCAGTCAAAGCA  PBM binding z-score                  2.99
 5  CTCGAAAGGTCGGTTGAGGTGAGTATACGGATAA  PBM binding z-score                   1.7
 6  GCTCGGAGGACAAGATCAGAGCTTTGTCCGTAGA  PBM binding z-score                -0.742
 7  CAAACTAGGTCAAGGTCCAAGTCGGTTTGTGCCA  PBM binding z-score                  2.44
 8  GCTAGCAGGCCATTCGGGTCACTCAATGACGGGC  PBM binding z-score                 0.603
 9  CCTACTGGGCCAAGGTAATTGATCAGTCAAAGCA  PBM binding z-score                -0.478
10  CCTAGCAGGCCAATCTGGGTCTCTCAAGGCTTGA  PBM binding z-score                -0.409
11  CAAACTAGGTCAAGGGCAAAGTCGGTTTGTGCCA  PBM binding z-score                  3.12
12  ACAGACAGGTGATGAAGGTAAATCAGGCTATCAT  PBM binding z-score                -0.136
13  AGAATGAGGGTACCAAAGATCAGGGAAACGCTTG  PBM binding z-score                  2.43
14  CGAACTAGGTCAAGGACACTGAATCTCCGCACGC  PBM binding z-score                  2.34
15  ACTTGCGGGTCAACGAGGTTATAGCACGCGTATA  PBM binding z-score                  4.45
16  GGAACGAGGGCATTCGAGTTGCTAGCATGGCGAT  PBM binding z-score                   0.5
17  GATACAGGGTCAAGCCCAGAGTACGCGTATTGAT  PBM binding z-score                  4.26
18  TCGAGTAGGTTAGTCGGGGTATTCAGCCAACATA  PBM binding z-score               -0.0351

The measured values listed here are drawn from the supplement of paper PMC6555819.
